tested on: SNU601 cells expressing CLDN18.2; test: Endocytosis of antibody after binding to SNU601 cells stably expressing CLDN18.2; type: cell-based; details: 10 μg/ml, 4 h, 37° C.
ENDPOINT: antibody staining/binding on the cell surface under 37° C. incubation

Q. Can you look up the measured antibody staining/binding on the cell surface under 37° C. incubation of 18.2-A4: recombinant monoclonal CLDN18.2 antibody, VH SEQ ID NO: 31, VL SEQ ID NO: 36 (antibody, V domains shown, 18.2-A4 VH; 18.2-A4 VL) VH: EVQLVQSGAEVKKPGASVKVSCKASGYTFTSFWISWVRQAPGQGLEWIGNILPSDSYTNYNQKFKDRATLTVDKSTSTAYMELSSLRSEDTAVYYCTRYWRGNSFDYWGQGTLVTVSS VL: DIVMTQSPDSLALALGERATINCKSSQSIINSGNQKNYLTWYQQKPGQPPKLLIYWGGTRHSGVPDRFSGSGSGTDFTLTISSLQAEDVAVYYCQNGYYSPFTFGQGTKVEIK for me?
A. still bound well

Q. Same for 18.2-A1: recombinant monoclonal CLDN18.2 antibody, VH SEQ ID NO: 1, VL SEQ ID NO: 6 (antibody, V domains shown, 18.2-A1 VH; 18.2-A1 VL) VH: EVQLVQSGAEVKKPGASVKVSCKASGYTFTSSWLIWVRQAPGQGLEWIGTIVPSDSYTNYNQKFKDRATLTVDKSTSTAYMELSSLRSEDTAVYYCTRFRTGNSFDYWGQGTLVTVSS VL: DIVMTQSPDSLSVGLGERATINCKSSQSVLNSGNQKNYLTWYQQKPGQPPKLLIYWAVARQSGVPDRFSGSGSGTDFTLTISSLQAEDVAVYYCQNSIAYPFTFGQGTKVEIK
A. still bound well

Q. Same for 18.2-A3: recombinant monoclonal CLDN18.2 antibody, VH SEQ ID NO: 21, VL SEQ ID NO: 26 (antibody, V domains shown, 18.2-A3 VH; 18.2-A3 VL) VH: EVQLVQSGAEVKKPGASVKVSCKASGYTFTSYWLNWVRQAPGQGLEWIGSMYPSDSYTNYNQKFKDRATLTVDKSTSTAYMELSSLRSEDTAVYYCTRFSRGNSFDYWGQGTLVTVSS VL: DIVMTQSPDSLTVALGERATINCKSSQSLLESGNQKNYLTWYQQKPGQPPKLLIYWSWAKNSGVPDRFSGSGSGTDFTLTISSLQAEDVAVYYCQNAYAFPFTFGQGTKVEIK
A. still bound well
